biological target: T1, human IGF2^1-67 (mature insulin-like growth factor 2) (human, UniProt P01344 25-91, biotinylated (site not stated) where immobilised on the chip (Tables 1-4)); test: SPR kinetic, biotin-IGF2 on chip, pH 6.5
T1 construct: mature; also called mature IGF2; biotinylated IGF2
T1 sequence (P01344 25-91): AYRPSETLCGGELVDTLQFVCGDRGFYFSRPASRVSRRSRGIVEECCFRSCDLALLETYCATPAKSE
Endpoint label: kon (M⁻¹ s⁻¹)

In the examples that follow, each entry is paired with its recorded kon.
| Binder | kon (M⁻¹ s⁻¹) |
| --- | --- |
| domain 11^AB3 Q1569R P1597H S1602H (receptor, See m5) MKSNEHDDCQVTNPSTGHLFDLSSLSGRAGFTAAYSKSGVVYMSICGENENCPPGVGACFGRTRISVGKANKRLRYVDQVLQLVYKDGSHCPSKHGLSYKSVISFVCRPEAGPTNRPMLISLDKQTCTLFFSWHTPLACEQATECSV | 1.61e+07 |
| domain 11^AB5 Q1569R P1597H S1602H (receptor, See m5) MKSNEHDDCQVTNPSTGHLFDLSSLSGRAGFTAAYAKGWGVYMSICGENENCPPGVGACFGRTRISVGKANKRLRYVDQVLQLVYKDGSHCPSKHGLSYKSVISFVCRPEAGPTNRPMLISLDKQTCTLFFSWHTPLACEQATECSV | 4.41e+06 |

(I) domain 11^AB3 Q1569R P1597H (receptor, See m5) MKSNEHDDCQVTNPSTGHLFDLSSLSGRAGFTAAYSKSGVVYMSICGENENCPPGVGACFGRTRISVGKANKRLRYVDQVLQLVYKDGSHCPSKSGLSYKSVISFVCRPEAGPTNRPMLISLDKQTCTLFFSWHTPLACEQATECSV
(II) domain 11^AB5 P1597H S1602H (receptor, See m5) MKSNEHDDCQVTNPSTGHLFDLSSLSGRAGFTAAYAKGWGVYMSICGENENCPPGVGACFGQTRISVGKANKRLRYVDQVLQLVYKDGSHCPSKHGLSYKSVISFVCRPEAGPTNRPMLISLDKQTCTLFFSWHTPLACEQATECSV
IN: Between the entries labelled I and II , which has a larger kon value on record? Your answer should be the label of the entry you select.
OUT: I

Taken from patent US20180237497A1.
